biological target: complement C5a receptor 1 (C5aR1) (Homo sapiens, UniProt P21730); construct: β-galactosidase fragment (PathHunter enzyme complementation); host or cells: CHO-K1 (PathHunter CHO-K1 C5aR1 β-arrestin cell line); test: β-arrestin recruitment via C5aR1 activation in live CHO-K1 cells (PathHunter), antagonist mode; assay type: cell-based; conditions: antagonist mode; recombinant hC5a (EC90) as competing natural agonist; live CHO-K1 cells; read-out: [Antagonist] B-arrestin2 recruitment: Average IC50
Sequence (P21730 whole entry, the tested form may be a part): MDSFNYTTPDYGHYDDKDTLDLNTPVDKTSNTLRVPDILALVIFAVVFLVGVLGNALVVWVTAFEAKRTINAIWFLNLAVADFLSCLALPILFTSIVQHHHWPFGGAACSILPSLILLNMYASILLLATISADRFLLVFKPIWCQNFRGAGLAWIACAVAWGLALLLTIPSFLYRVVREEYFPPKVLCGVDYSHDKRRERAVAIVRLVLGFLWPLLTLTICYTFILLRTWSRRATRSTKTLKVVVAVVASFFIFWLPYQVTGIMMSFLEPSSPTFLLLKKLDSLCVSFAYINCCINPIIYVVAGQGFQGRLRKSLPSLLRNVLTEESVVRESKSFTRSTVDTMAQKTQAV
Measured IC50 of individual entries
Assay endpoint: IC50

molecule=Cc1cnc2cc([C@H]3CC[C@H](c4ncsc4C)CC3)c(=O)n(Cc3ncccc3C(F)(F)F)c2n1 measured="0.5 to 5 µM"
molecule="Cc1cnc2cc([C@@H]3CC[C@@H](c4c(C)cccc4F)C3)c(=O)n(Cc3ncccc3OC(F)F)c2n1 [175D]" measured="0.5 to 5 µM"
molecule="Cc1cnc2cc(N3CCN(c4c(C)cccc4F)CC3)c(=O)n(Cc3nccn(C(F)F)c3=O)c2n1 [161B]" measured="5 to 100 µM"
molecule="Cc1cnc2cc([C@H]3CC[C@@H](c4c(C)cccc4F)CC3)c(=O)n(Cc3nccnc3C(F)(F)F)c2n1 [99a]" measured="0.5 to 5 µM"
molecule=Cc1c(N2CCC(c3cc4nccnc4n(Cc4ccccc4C(F)(F)F)c3=O)CC2)ccnc1F measured="5 to 100 µM"
molecule=Cc1ccc2cc([C@H]3CC[C@H](c4c(C)cccc4F)CC3)c(=O)n(Cc3nccnc3OC(F)F)c2n1 measured="< 0.5 µM"
molecule=Cc1cccc(F)c1N1CCC(c2cc3nccnc3n(Cc3nccnc3C(F)(F)F)c2=O)CC1 measured="< 0.5 µM"

====

target: complement C5a receptor 1 (C5aR1) (Homo sapiens, UniProt P21730); construct: β-galactosidase fragment (PathHunter enzyme complementation); host or cells: CHO-K1 (PathHunter CHO-K1 C5aR1 β-arrestin cell line); experiment: β-arrestin recruitment via C5aR1 activation in live CHO-K1 cells (PathHunter), antagonist mode; format: cell-based; settings: antagonist mode; recombinant hC5a (EC90) as competing natural agonist; live CHO-K1 cells; read-out: [Antagonist] B-arrestin2 recruitment: Average IC50
The following compounds are listed with their measured IC50 values.
Assay endpoint: IC50

compound=Cc1cnc2cc(C3CCN(c4ccc5c(cnn5C)c4)CC3)c(=O)n(Cc3ncccc3C(F)(F)F)c2n1 assay_endpoint=IC50 measured="5000 to 100000 nM"
compound=Cc1cccc(F)c1[C@H]1CC[C@H](c2cc3nc(CC(F)F)cnc3n(Cc3ncccc3C(F)(F)F)c2=O)CC1 assay_endpoint=IC50 measured="< 500 nM"
compound="Cc1cnc2cc([C@H]3CC[C@@H](c4c(C)ccnc4F)CC3)c(=O)n(Cc3nccnc3C(F)(F)F)c2n1 [143B]" assay_endpoint=IC50 measured="500 to 5000 nM"
compound=Cc1nccnc1Cn1c(=O)c(C2CCN(c3ccccc3OC(F)(F)F)CC2)cc2nccnc21 assay_endpoint=IC50 measured="500 to 5000 nM"
compound=COc1cnc2cc(C3CCN(c4c(C)cccc4F)CC3)c(=O)n(Cc3nccnc3C)c2n1 assay_endpoint=IC50 measured="5000 to 100000 nM"
compound=Cc1cccc(F)c1N1CC(c2cc3nccnc3n(Cc3ncccc3C(F)(F)F)c2=O)C1 assay_endpoint=IC50 measured="500 to 5000 nM"
compound=Cc1ncc2cc(C3CCN(c4c(C)cccc4F)CC3)c(=O)n(Cc3nccnc3C)c2n1 assay_endpoint=IC50 measured="500 to 5000 nM"
compound=Cc1cnc2cc([C@H]3CC[C@H](c4cnccc4C(C)(F)F)CC3)c(=O)n(Cc3ncccc3C(F)(F)F)c2n1 assay_endpoint=IC50 measured="< 500 nM"
compound=COc1nccnc1Cn1c(=O)c(C2CCN(c3c(C)cccc3F)CC2)c(C)c2nccnc21 assay_endpoint=IC50 measured="500 to 5000 nM"
compound=Cc1cnc2cc(C3CCN(c4cnsc4C)CC3)c(=O)n(Cc3ncccc3C(F)(F)F)c2n1 assay_endpoint=IC50 measured="< 500 nM"
compound=COc1nccnc1Cn1c(=O)c([C@H]2CC[C@H](c3c(C)cccc3F)CC2)cc2ncc(C)nc21 assay_endpoint=IC50 measured="< 500 nM"
compound=Cc1cnc2cc(C3CCN(c4c(C)cccc4F)CC3)c(=O)n(Cc3ncccc3C(F)(F)F)c2c1 assay_endpoint=IC50 measured="5000 to 100000 nM"
compound=Cc1cccc(F)c1N1CCC(c2cc3nccnc3n(Cc3cccnc3C(F)(F)F)c2=O)CC1 assay_endpoint=IC50 measured="< 500 nM"
compound=Cc1cnc2cc([C@H]3CC[C@H](c4c(C)cccc4F)CC3)c(=O)n(Cc3ncccc3C(F)F)c2n1 assay_endpoint=IC50 measured="< 500 nM"
compound=Cc1ccnc(F)c1N1CCC(c2c(C)c3nccnc3n(Cc3ncccc3C(F)(F)F)c2=O)CC1 assay_endpoint=IC50 measured="500 to 5000 nM"
